Assay: PAX8 transcriptional activity inhibition in RMG-I – RMG-I cells, luciferase, single concentration, primary screen (AID 652154);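 also: luciferase light reporting Pax8 driven TPO promoter activity; plate controls were median of neutral control wells for no effect and mitoxantrone controls for full effect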
Conditions: RMG-I TPO-luciferase reporter, SteadyGlo, 24 h; at 12.6 µM
Out of some 360,000 compounds screened, about 4,200 (1.2%) were called active.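 The calls were made as follows: active = mean replicate inhibition at least 60% with every replicate also reaching 60%; inconclusive = only one of the two criteria is met; inactive = mean below 60% and not all replicates reaching 60%.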 Many of the other results were omitted from the sample, so actives are more common in it than they were.
Outcomes: class 1 (active), class 0 (inactive)

structure notation | label
C[C@H]1CCCCO[C@H](CN(C)C(=O)NC2CCCCC2)[C@@H](C)CN([C@@H](C)CO)C(=O)c2cc(NC(=O)Nc3ccc4c(c3)OCO4)ccc2O1 | class 1
C[C@H](CO)N1C[C@H](C)[C@@H](CN(C)CC2CCCCC2)Oc2ccc(NC(=O)Cn3cnnn3)cc2CC1=O | class 0
C[C@@H]1CCCCO[C@H](CN(C)CC2CCCCC2)[C@H](C)CN([C@H](C)CO)C(=O)c2cc(NC(=O)Nc3ccc(F)cc3)ccc2O1 | class 1
C[C@@H]1CCCCO[C@H](CN(C)C(=O)NC2CCCCC2)[C@H](C)CN([C@@H](C)CO)C(=O)c2cc(NC(=O)Nc3ccc(F)cc3)ccc2O1 | class 0
C[C@@H]1CN([C@H](C)CO)C(=O)c2cc(NC(=O)Nc3ccc(F)cc3)ccc2O[C@@H](C)CCCCO[C@@H]1CN(C)CC1CCCCC1 | class 0
C[C@@H]1CCCCO[C@H](CN(C)C(=O)NC2CCCCC2)[C@H](C)CN([C@H](C)CO)C(=O)c2cc(NC(=O)Nc3ccc(F)cc3)ccc2O1 | class 1
C[C@@H]1CN([C@@H](C)CO)C(=O)Cc2cc(NS(=O)(=O)c3ccc(Cl)cc3)ccc2O[C@H]1CN(C)Cc1ccc(C(F)(F)F)cc1 | class 1
O=C(C[C@@H]1CC[C@@H]2[C@H](COC[C@@H](O)CN2C(=O)c2ccccc2F)O1)N1CCOCC1 | class 0
C[C@@H]1CN([C@H](C)CO)C(=O)Cc2cc(NC(=O)CCN3CCOCC3)ccc2O[C@H]1CN(C)Cc1ccncc1 | class 0
C[C@@H]1CCCCO[C@@H](CN(C)C(=O)NC2CCCCC2)[C@H](C)CN([C@@H](C)CO)C(=O)c2cc(NC(=O)Nc3ccc(F)cc3)ccc2O1 | class 0
CC(C)NC(=O)N1C[C@@H]2[C@H](c3ccccc31)[C@H](CO)N2C(=O)c1ccccn1 | class 0
C[C@H](CO)N1C[C@H](C)[C@@H](CN(C)C(=O)Nc2ccc3c(c2)OCO3)OCCCC[C@H](C)Oc2ccc(NC(=O)Nc3ccc4c(c3)OCO4)cc2C1=O | class 0
C[C@H](CO)N1C[C@H](C)[C@H](CN(C)Cc2ccncc2)Oc2ccc(NS(=O)(=O)c3ccc(F)cc3)cc2CC1=O | class 0
C[C@@H]1CCCCO[C@H](CN(C)CC2CC2)[C@@H](C)CN([C@H](C)CO)C(=O)c2cc(NC(=O)Nc3ccc(F)cc3)ccc2O1 | class 0
